# TARGET_DESC: human ACC2 (acetyl-coenzyme A carboxylase 2) (Homo sapiens)
# Sequence (O00763 27-2458 limits assumed): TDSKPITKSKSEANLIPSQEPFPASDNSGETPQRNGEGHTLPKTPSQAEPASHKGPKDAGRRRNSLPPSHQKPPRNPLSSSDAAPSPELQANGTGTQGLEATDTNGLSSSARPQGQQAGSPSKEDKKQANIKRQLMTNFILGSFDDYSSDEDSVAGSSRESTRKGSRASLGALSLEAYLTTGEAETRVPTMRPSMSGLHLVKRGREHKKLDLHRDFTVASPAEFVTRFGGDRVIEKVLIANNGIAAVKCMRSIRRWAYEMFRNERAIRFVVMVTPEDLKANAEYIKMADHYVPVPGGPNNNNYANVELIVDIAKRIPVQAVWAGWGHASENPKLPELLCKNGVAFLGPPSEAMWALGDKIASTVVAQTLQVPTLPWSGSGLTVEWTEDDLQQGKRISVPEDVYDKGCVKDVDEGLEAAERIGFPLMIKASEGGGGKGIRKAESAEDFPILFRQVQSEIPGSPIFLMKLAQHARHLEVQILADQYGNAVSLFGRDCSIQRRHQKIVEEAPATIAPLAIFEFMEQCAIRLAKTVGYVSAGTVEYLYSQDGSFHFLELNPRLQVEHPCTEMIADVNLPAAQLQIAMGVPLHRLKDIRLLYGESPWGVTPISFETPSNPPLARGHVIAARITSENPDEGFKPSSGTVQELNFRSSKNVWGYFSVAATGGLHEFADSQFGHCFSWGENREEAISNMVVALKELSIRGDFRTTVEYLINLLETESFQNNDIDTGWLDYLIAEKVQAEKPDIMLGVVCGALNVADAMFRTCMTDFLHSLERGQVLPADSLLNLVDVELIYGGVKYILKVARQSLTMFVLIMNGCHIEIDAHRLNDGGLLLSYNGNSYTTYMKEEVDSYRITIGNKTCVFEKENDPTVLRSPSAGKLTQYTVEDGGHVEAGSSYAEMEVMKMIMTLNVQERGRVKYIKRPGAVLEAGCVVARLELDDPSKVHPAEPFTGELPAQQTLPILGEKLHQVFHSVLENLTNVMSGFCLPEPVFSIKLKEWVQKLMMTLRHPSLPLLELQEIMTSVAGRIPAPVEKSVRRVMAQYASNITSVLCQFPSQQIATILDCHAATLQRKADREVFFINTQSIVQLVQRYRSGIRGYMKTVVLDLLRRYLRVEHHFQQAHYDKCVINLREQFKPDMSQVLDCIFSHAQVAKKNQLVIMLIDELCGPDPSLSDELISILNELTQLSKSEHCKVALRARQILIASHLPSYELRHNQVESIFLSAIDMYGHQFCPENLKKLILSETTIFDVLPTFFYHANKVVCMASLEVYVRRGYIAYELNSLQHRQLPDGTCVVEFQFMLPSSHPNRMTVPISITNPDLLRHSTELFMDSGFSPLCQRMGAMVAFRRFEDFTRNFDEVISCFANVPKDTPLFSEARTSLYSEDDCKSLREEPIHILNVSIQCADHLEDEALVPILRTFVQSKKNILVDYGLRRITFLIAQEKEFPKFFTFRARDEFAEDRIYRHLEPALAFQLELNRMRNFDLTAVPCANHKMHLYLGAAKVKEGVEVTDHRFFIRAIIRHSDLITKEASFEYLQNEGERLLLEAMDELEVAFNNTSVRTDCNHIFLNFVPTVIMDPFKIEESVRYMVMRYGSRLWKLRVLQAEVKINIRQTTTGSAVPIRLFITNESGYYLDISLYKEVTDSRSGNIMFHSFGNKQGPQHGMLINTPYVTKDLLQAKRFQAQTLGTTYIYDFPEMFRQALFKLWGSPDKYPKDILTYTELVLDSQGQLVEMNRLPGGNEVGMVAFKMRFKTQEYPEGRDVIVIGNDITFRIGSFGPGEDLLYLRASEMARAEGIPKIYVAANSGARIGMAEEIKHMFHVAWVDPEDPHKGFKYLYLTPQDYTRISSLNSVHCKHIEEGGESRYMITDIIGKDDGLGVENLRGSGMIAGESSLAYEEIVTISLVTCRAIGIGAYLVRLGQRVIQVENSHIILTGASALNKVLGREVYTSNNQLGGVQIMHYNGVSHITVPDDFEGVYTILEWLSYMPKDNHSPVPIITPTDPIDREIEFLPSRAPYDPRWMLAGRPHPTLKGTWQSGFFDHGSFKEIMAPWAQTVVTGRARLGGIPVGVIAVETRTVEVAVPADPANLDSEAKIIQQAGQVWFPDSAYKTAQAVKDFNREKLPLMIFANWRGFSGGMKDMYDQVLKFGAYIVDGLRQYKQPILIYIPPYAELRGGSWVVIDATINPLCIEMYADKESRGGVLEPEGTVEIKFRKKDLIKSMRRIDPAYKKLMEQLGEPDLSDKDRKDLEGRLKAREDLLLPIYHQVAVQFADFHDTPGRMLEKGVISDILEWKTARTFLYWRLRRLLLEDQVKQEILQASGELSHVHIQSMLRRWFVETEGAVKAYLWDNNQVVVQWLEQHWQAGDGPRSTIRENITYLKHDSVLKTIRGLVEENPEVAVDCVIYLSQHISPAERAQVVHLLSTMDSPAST
# ASSAY_NOTES: Human ACC2 enzyme assay, Assay B2 (ADP-Glo);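 note: human ACC2 activity read as ADP product, detected by luciferase glow luminescence after residual ATP removal, enzyme near 2 ng/µl in linear range, detection steps at 22 °C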
As shown below, each of these compounds has a reported pIC50 value.
The scale used: pIC50 is minus the common logarithm of the concentration in molar units.

INPUT: human ACC2 (acetyl-coenzyme A carboxylase 2) (Homo sapiens) / pIC50 / Cc1ccc(-c2ccc(Cl)cc2)cc1C1=C(O)C2(CCC3(CC2)OCC(C)CO3)NC1=O (stereo not shown) : value?
OUTPUT: 5.50

INPUT: human ACC2 (acetyl-coenzyme A carboxylase 2) (Homo sapiens) / pIC50 / CCCC1CCC2(CC1)CC(=O)C(c1cc(-c3ccc(Cl)cc3)ccc1C)=C2O (stereo not shown) : value?
OUTPUT: 5.90

INPUT: human ACC2 (acetyl-coenzyme A carboxylase 2) (Homo sapiens) / pIC50 / "O=C1N[C@]2(CC[C@@H](C(F)(F)F)CC2)C(O)=C1c1cc(-c2ccc(Cl)c(F)c2)ccc1Cl" : value?
OUTPUT: 5.78

====

# TARGET_DESC: human ACC1 (acetyl-coenzyme A carboxylase alpha transcript variant 1) (Homo sapiens, UniProt Q13085)
# Construct: FLAG (C); made in house; host or cells: baculovirus-infected insect cells (Hi5)
# ASSAY_NOTES: Human ACC1 enzyme assay, Assay B1 (ADP-Glo)
# Type: biochemical
# CONDITION_DESCRIPTION: Assay B1; read-out: ACC 1 (=B1) IC50
PROPERTY_NAME: pIC50
The scale used: pIC50 is minus the common logarithm of the concentration in molar units.

Here's what some known entries look like.
COMPOUND | pIC50
CCOC1CCC2(CC1)NC(=O)C(c1cc(-c3ccc(Cl)cc3)ccc1C)=C2O (centres unmarked) [1-28] | 6.36
Cc1cc(C)c(-c2ccc(Cl)cc2)cc1C1=C(O)C2(CCCCC2)SC1=O [3-3] | 6.58
Cc1ccc(-c2ccc(Cl)c(F)c2)cc1C1=C(O)[C@]2(CC[C@H](C)CC2)NC1=O [1-110] | 7.10
Cc1cc(C)c(-c2ccc(Cl)cc2)cc1C1=C(O)C2(CCCOC2)NC1=O (centres unmarked) [1-8] | 5.24

INPUT: Query: pIC50; subject: CCCC1CCC2(CC1)NC(=O)C(c1cc(-c3ccc(Cl)cc3)ccc1C)=C2O (centres unmarked) [1-83]
OUTPUT: 6.24

====

# TARGET_DESC: human ACC1 (acetyl-coenzyme A carboxylase alpha transcript variant 1) (Homo sapiens)
# Construct: FLAG (C); made in house; host or cells: baculovirus-infected insect cells (Hi5)
# ASSAY_NOTES: Human ACC1 enzyme assay, Assay B1 (ADP-Glo)
# Assay type: biochemical
# CONDITION_DESCRIPTION: Assay B1; read-out: ACC 1 (=B1) IC50
As shown below, each of these compounds has a reported pIC50 value.
The scale used: pIC50 is minus the common logarithm of the concentration in molar units.

Here's what some known entries look like.
COMPOUND | pIC50
Cc1ccc(-c2ccc(Cl)cc2)cc1-c1c(O)c2ccc(Cl)cc2[nH]c1=O [9-11] | 6.40
Cc1ccc(-c2ccc(Cl)cc2)cc1C1=C(O)[C@@]2(CC[C@H](OCC(C)C)C2)NC1=O (relative stereo) [1-49] | 4.97
Cc1ccc(-c2ccc(Cl)cc2)cc1C1=C(O)C2(CCC(OCC(F)(F)F)CC2)NC1=O (stereo not shown) [1-33] | 6.63

INPUT: Query: pIC50; subject: Cc1ccc(-c2ccc(Cl)c(Cl)c2)cc1-c1c(O)c2ccc(Cl)cc2[nH]c1=O [9-7]
OUTPUT: 6.51

====

# TARGET_DESC: human ACC1 (acetyl-coenzyme A carboxylase alpha transcript variant 1) (Homo sapiens, UniProt Q13085)
# Construct: FLAG (C); made in house; host or cells: baculovirus-infected insect cells (Hi5)
# ASSAY_NOTES: Human ACC1 enzyme assay, Assay B1 (ADP-Glo)
# Format: biochemical
# CONDITION_DESCRIPTION: Assay B1; read-out: ACC 1 (=B1) IC50
As shown below, each of these molecules has a reported IC50 value.
Form entry: value (nM) — number only.

Here's what some known entries look like.
MOLECULE | UNIT_LABEL | IC50
O=C1NC2(CCOCC2)C(O)=C1c1cc(-c2cc(F)c(F)c(F)c2)ccc1Cl | nM | 747
Cc1ccc(-c2ccc(Cl)cc2)cc1C1=C(O)[C@]2(CC[C@H](C)CC2)NC1=O | nM | 163
CO[C@H]1CC[C@]2(CC1)NC(=O)C(c1cc(-c3ccc(F)c(Cl)c3)ccc1C)=C2O | nM | 4930
COCC[C@H]1CC[C@]2(CC1)NC(=O)C(c1cc(-c3ccc(Cl)c(F)c3)ccc1C)=C2O | nM | 113
Cc1ccc(-c2ccc(Cl)cc2)cc1C1=C(O)C2(CCCCCC2)NC1=O | nM | 367

INPUT: Query: IC50; subject: Cc1ccc(-c2ccc(F)cc2)cc1C1=C(O)C2(CCC(OCC(F)(F)F)CC2)NC1=O (stereo not drawn)
OUTPUT: 516

====

# TARGET_DESC: human ACC1 (acetyl-coenzyme A carboxylase alpha transcript variant 1) (Homo sapiens)
# Construct: FLAG (C); made in house; host or cells: baculovirus-infected insect cells (Hi5)
# ASSAY_NOTES: Human ACC1 enzyme assay, Assay B1 (ADP-Glo)
# Type: biochemical
pIC50: −log10 of the molar value.
Label yes for high-side pIC50 (at or above 6) and no for low-side pIC50 (below it).

Please review the entries below; each comes with its answer.
COMPOUND | TARGET_DESC | DISCRETE_LABEL
COC1CCCC2(C1)OC(=O)C(c1c(C)cc(C)c(-c3ccc(Cl)cc3)c1C)=C2O (stereo not drawn) | human ACC1 (acetyl-coenzyme A carboxylase alpha transcript variant 1) (Homo sapiens) | no
CCOC1CCC2(CC1)NC(=O)C(c1cc(-c3cccc(Cl)c3)ccc1C)=C2O (stereo not drawn) | human ACC1 (acetyl-coenzyme A carboxylase alpha transcript variant 1) (Homo sapiens) | no
COCC1CCCC2(C1)NC(=O)C(c1cc(-c3ccc(Cl)cc3)ccc1Cl)=C2O (stereo not drawn) | human ACC1 (acetyl-coenzyme A carboxylase alpha transcript variant 1) (Homo sapiens) | no
CO[C@H]1CC[C@]2(CC1)NC(=O)C(c1cc(-c3ccc(Cl)cc3)c(Cl)cc1C)=C2O | human ACC1 (acetyl-coenzyme A carboxylase alpha transcript variant 1) (Homo sapiens) | yes
CO[C@H]1CC[C@]2(CC1)NC(=O)C(c1cc(-c3ccc(Cl)cc3)cc(F)c1C)=C2O | human ACC1 (acetyl-coenzyme A carboxylase alpha transcript variant 1) (Homo sapiens) | yes

INPUT: API: above_or_equal(metric=pIC50, cutoff=6) for item Cc1ccc(-c2ccc(Cl)cc2)cc1C1C(=O)N2C3CCC(C3)N2C1=O (stereo not drawn)
OUTPUT: yes

INPUT: API: above_or_equal(metric=pIC50, cutoff=6) for item "Cc1cc(C)c(-c2ccc(Cl)cc2)c(C)c1C1=C(O)C2(CCCC2)OC1=O"
OUTPUT: no

INPUT: API: above_or_equal(metric=pIC50, cutoff=6) for item "Cc1ccc(-c2ccc(Cl)cc2)cc1C1=C(O)C2(CCOCC2)NC1=O"
OUTPUT: yes

INPUT: API: above_or_equal(metric=pIC50, cutoff=6) for item "CC(C)[C@H]1CC[C@]2(CC1)NC(=O)C(c1cc(-c3ccc(Cl)cc3)ccc1Cl)=C2O"
OUTPUT: yes

INPUT: API: above_or_equal(metric=pIC50, cutoff=6) for item "Cc1ccc(-c2ccc(Cl)cc2)cc1C1=C(O)C2(CCCCCC2)OC1=O"
OUTPUT: yes

====

# System: HCC-1937
# ASSAY_NOTES: Cell proliferation assay (CellTiter-Glo, 96 h), HCC-1937
# Format: cell-based
# CONDITION_DESCRIPTION: Homo sapiens, HCC1937; HCC-1937 cells
PROPERTY_NAME: pIC50
The scale used: pIC50 is minus the common logarithm of the concentration in molar units.

INPUT: Query: pIC50; subject: "Cc1cc(C)c(-c2ccc(Cl)cc2)cc1C1=C(O)[C@]2(CC[C@@]3(CCCO3)CC2)OC1=O"
OUTPUT: 5.82

====

# Test system: HEC1A
# ASSAY_NOTES: Cell proliferation assay (CellTiter-Glo, 96 h), HEC1A
# Type: cell-based
# CONDITION_DESCRIPTION: Homo sapiens, HEC-1-A; 96-hour incubation
PROPERTY_NAME: IC50 (nM)
Form entry: value (nM) — number only.

COMPOUND | UNIT_LABEL | REPORTED_VALUE
Cc1ccc(-c2ccc(F)c(F)c2)cc1C1=C(O)[C@]2(CC[C@H](C(F)(F)F)CC2)NC1=O [1-128] | nM | 328

INPUT: Query: IC50; subject: CO[C@H]1CC[C@]2(CC1)NC(=O)C(c1cc(-c3ccc(Cl)c(F)c3)ccc1C)=C2O [1-118]
OUTPUT: 1760
